system: Klebsiella pneumoniae; experiment: Antibacterial activity against Klebsiella pneumonia assessed growth inhibition by micro broth dilution method; assay type: functional
Would you mind sorting the entries by MIC according to these classes? lowest (below 8 µg/mL), middle (8 µg/mL to below 60 µg/mL), highest (60 µg/mL or more)

Incoming: GET /class?item= C#CCn1cc(C(=O)OCC)c(=O)c2cc(F)c(F)cc21
Outgoing: highest

Incoming: GET /class?item= CCOC(=O)c1cn(Cc2cnc(Cl)s2)c2cc([C-](C#N)C(=O)OCC)c(F)cc2c1=O.[Na+] (stereo unspecified)
Outgoing: middle

Incoming: GET /class?item= CCOC(=O)C(C#N)c1cc2c(cc1F)c(=O)c(C(=O)O)cn2Cc1ccc(F)cc1F (stereo unspecified)
Outgoing: lowest

Incoming: GET /class?item= CCCn1cc(C(=O)OCC)c(=O)c2cc(F)c(F)cc21
Outgoing: highest

Incoming: GET /class?item= CCOC(=O)c1cn(CC2CCCC2)c2cc(F)c(F)cc2c1=O
Outgoing: middle

Incoming: GET /class?item= CCOC(=O)c1cn(CC(=O)N2CCCCC2)c2cc(F)c(F)cc2c1=O
Outgoing: highest

***
Incoming: GET /class?item= CCCCn1cc(C(=O)OCC)c(=O)c2cc(F)c(F)cc21
Outgoing: highest

Incoming: GET /class?item= CCCCCCCCn1cc(C(=O)OCC)c(=O)c2cc(F)c(F)cc21
Outgoing: highest

----------
test system: Staphylococcus aureus; assay: Antibacterial activity against Staphylococcus aureus ATCC 25923 assessed growth inhibition by micro broth dilution method; type: functional
Reported Metric: log10 of MIC (log10 of the value in µg/mL)
Values below are the log10 of the recorded MIC, with µg/mL as the unit.

Below are worked cases with known answers.
Incoming: Identify measured log10 of MIC corresponding to CCOC(=O)c1cn(CC(=O)N2CCCCC2)c2cc(F)c(F)cc2c1=O
Outgoing: 2.11

Incoming: Identify measured log10 of MIC corresponding to CCOC(=O)c1cn(Cc2ccc(Cl)cc2)c2cc(F)c(F)cc2c1=O
Outgoing: 2.41

***
Incoming: Identify measured log10 of MIC corresponding to CCCn1cc(C(=O)OCC)c(=O)c2cc(F)c(F)cc21
Outgoing: 2.41

Incoming: Identify measured log10 of MIC corresponding to CCOC(=O)c1cn(Cc2ccc([N+](=O)[O-])cc2)c2cc(C(C#N)C(=O)OCC)c(F)cc2c1=O.[Na+] (stereo unspecified)
Outgoing: 0.00

Incoming: Identify measured log10 of MIC corresponding to CCOC(=O)c1cn(CC)c2c(F)c([C-](C#N)C(=O)OCC)c(F)cc2c1=O.[Na+] (stereo unspecified)
Outgoing: 1.20

Incoming: Identify measured log10 of MIC corresponding to CCOC(=O)c1cn(C2CC2)c2cc([C-](C#N)C(=O)OCC)c(F)cc2c1=O.[Na+] (stereo unspecified)
Outgoing: 0.90

Incoming: Identify measured log10 of MIC corresponding to CCOC(=O)c1cn(Cc2ccc(Cl)c(Cl)c2)c2cc(F)c(F)cc2c1=O
Outgoing: 2.41

Incoming: Identify measured log10 of MIC corresponding to CCOC(=O)c1cn(CC)c2cc(F)c(F)cc2c1=O
Outgoing: 2.41

Incoming: Identify measured log10 of MIC corresponding to CCOC(=O)c1cn(Cc2ccccc2Cl)c2cc(F)c(F)cc2c1=O
Outgoing: 2.41

Incoming: Identify measured log10 of MIC corresponding to CCOC(=O)c1cn(Cc2ccc(Cl)c(Cl)c2)c2cc([C-](C#N)C(=O)OCC)c(F)cc2c1=O.[Na+] (stereo unspecified)
Outgoing: -0.60

Incoming: Identify measured log10 of MIC corresponding to CCOC(=O)c1cn(Cc2cccc(Cl)c2)c2cc([C-](C#N)C(=O)OCC)c(F)cc2c1=O.[Na+] (stereo unspecified)
Outgoing: 0.00
